Data provenance: ChEMBL document CHEMBL1201862

Biological target: Alkaline phosphatase, tissue-nonspecific isozyme (Homo sapiens, UniProt P05186)
Sequence (P05186 whole entry): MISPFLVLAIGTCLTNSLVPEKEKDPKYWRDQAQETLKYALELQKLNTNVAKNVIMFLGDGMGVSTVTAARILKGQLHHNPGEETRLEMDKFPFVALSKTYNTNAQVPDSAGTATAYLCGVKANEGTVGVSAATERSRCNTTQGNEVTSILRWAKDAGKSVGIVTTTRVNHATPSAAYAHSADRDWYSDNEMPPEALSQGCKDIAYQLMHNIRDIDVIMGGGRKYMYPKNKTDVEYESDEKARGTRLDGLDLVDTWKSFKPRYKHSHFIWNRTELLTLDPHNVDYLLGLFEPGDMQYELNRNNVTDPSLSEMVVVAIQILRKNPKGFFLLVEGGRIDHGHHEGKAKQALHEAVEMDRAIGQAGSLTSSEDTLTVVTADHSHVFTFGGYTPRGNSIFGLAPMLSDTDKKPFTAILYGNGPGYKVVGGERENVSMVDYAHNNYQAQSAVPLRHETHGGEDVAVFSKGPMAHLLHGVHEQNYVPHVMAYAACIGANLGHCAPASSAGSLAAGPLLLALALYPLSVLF
Experiment: TNAP enzyme inhibition by screening hits, dose response, selectivity assay for mouse IAP inhibitor project, biochemical, human TNAP, uHTS hits (AID 488906)
Assay type: functional
Activity calls are given as the source filed them.
MEASUREMENT_LABEL: IC50

# annotated cases, reported IC50 shown
NS(=O)(=O)c1cc(C(=O)N=Nc2c(O)[nH]c3ccccc23)ccc1Cl > 100 µM (inactive)
O=C(CCCN1C(=O)/C(=C\c2ccco2)SC1=S)Nc1ccc(O)cc1C(=O)O > 100 µM (inactive)
CCCCCOc1ccc(C(=O)CCC(=O)NNC(=O)c2ccncc2)cc1 > 100 µM (inactive)

Attention now shifts to the item below.
GET /value?item= "Cc1ccc(C)c(S(=O)(=O)Nc2ccc(O)c(Sc3nnc[nH]3)c2)c1" &field=IC50 returns 5.46 µM (active)

====

Target: Microphthalmia-associated transcription factor (Homo sapiens)
Sequence (O75030 whole entry): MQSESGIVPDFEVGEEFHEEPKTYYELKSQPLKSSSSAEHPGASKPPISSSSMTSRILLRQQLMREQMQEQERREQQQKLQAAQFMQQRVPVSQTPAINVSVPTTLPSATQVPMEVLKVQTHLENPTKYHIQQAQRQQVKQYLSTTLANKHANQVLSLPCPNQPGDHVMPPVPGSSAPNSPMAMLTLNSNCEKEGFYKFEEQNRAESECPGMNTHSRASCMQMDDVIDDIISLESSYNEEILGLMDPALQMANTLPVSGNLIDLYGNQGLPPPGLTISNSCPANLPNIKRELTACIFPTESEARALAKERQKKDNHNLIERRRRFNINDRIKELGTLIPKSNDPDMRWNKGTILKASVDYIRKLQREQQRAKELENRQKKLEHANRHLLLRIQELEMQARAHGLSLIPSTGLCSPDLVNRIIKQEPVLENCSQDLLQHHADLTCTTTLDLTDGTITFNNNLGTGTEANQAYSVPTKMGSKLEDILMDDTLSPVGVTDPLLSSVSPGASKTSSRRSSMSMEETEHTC
Assay: reducers of TRPM1 reporter luminescence, concentration series – cell-based, SK-MEL-5, cherry-picked, set 3, MITF inhibitor project, dose response (AID 493073);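 further: SK-MEL-5 melanoma cells with luciferase driven by the MITF target TRPM1 promoter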
Assay type: functional
Calls of active or inactive are those of the source.
MEASUREMENT_LABEL: AC50

COMPOUND	AC50
COc1cc(C2C(C#N)=C(N)Oc3cc4c(cc32)OCO4)cc(OC)c1OC (stereo unspecified)	0.365 µM (active)

GET /value?item= "O=C(O)c1ccc(N/N=C/c2ccc(OC(=O)c3cccc(Cl)c3)cc2)cc1" &field=AC50 returns 3.21 µM (active)

GET /value?item= "Cc1ccc(-n2nnnc2Sc2nc([N+](=O)[O-])nn2C)c(C)c1" &field=AC50 returns 39.6 µM (active)

GET /value?item= "O=C(C#Cc1ccccc1)c1cccc([N+](=O)[O-])c1" &field=AC50 returns 3.62 µM (active)

GET /value?item= "CCN(CCO)c1ccc(N=Nc2cc(C)[nH]n2)cc1" &field=AC50 returns 3.6 µM (active)

GET /value?item= "COC(=O)C1=C(C)N(Cc2ccccc2)C(NCC(C)C)=N[C@H]1c1cccc(C(F)(F)F)c1" &field=AC50 returns 15 µM (active)

====

Target: Ras and Rab interactor 1/Tyrosine-protein kinase ABL1 (Homo sapiens, UniProt P00519+Q13671);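 further: biochemical TR-FRET dose-response test measuring inhibition of binding between Rin1 and Abl proteins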
Sequence (P00519 whole entry): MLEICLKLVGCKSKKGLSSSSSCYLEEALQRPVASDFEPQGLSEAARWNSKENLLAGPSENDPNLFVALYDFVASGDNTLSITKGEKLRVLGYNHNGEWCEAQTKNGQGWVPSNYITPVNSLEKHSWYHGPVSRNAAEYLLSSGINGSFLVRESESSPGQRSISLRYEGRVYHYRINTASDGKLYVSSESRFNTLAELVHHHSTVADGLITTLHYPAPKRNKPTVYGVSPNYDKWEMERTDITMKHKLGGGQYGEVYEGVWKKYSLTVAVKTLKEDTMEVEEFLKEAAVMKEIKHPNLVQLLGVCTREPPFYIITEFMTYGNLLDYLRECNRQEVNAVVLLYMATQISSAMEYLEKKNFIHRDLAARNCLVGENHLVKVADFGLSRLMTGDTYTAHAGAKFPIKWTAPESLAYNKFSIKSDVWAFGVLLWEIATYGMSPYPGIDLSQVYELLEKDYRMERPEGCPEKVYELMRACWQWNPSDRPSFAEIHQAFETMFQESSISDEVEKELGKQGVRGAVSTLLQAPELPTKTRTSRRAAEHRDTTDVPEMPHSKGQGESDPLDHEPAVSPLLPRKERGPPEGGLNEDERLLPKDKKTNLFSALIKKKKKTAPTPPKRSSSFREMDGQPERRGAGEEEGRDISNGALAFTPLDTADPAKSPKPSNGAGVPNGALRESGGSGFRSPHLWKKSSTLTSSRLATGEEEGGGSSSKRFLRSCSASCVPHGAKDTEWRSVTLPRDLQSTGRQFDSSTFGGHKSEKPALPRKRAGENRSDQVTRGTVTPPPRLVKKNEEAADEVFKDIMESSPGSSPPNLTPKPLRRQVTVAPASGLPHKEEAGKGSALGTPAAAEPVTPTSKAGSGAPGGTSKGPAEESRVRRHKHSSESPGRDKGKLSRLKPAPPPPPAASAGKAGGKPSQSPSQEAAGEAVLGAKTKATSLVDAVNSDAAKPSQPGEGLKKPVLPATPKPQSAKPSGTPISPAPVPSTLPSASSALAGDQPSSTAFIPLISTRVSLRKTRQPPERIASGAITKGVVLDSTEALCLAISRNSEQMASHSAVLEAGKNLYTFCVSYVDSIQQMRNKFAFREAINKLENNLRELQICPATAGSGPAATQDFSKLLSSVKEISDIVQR
Sequence (Q13671 whole entry): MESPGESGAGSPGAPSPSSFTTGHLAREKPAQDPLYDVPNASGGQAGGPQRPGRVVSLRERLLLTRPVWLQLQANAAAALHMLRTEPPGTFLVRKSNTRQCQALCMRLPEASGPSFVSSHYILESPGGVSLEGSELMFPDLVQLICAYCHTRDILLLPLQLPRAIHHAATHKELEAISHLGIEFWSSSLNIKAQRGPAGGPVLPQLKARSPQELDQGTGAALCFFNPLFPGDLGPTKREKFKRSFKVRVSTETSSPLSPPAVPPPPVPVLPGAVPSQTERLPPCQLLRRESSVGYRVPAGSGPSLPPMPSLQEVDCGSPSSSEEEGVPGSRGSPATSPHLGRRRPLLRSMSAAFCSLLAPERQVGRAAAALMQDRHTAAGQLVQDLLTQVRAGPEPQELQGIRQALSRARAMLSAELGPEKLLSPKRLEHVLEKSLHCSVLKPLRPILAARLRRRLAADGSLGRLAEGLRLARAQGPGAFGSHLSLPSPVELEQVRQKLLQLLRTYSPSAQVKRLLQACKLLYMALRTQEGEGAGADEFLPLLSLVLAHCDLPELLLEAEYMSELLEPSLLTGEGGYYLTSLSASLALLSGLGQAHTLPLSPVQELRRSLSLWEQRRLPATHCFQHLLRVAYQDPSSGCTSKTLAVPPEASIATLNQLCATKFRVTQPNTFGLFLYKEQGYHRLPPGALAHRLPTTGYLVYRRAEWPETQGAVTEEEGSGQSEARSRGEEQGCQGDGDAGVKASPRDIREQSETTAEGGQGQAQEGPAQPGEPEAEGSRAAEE
Type: functional
Active and inactive are the calls of the source.
Give one outcome, nothing more. List: active, inactive

Completed entries (count: 3):
COMPOUND	GROUP_LABEL
OCCCNc1ncnc2c1ncn2[C@H]1CN(Cc2ccc(-c3ccccc3)cc2)C[C@@H](CO)O1	inactive
CCN(CC)C(=O)c1ccc(NC(=O)c2cc(S(=O)(=O)N3CCCCCC3)ccc2OC)cc1	active
CCc1cccc(NC(=O)CCCCCC2NC(=O)NC2C)c1 (centres undefined)	active

Consider the additional compound presented here.
Task: # lookup: test call for "CN(C(=O)c1ccc(NC(=O)Cc2ccc(NC(=O)C3CCN(C(=O)C4CCCC4)CC3)cc2)cc1)C1CCCC1"
Result: inactive
